Target: T1, Human GDF8 homodimer (mature human Growth and Differentiation Factor-8) (human, UniProt O14793 267-375)
T1 sequence: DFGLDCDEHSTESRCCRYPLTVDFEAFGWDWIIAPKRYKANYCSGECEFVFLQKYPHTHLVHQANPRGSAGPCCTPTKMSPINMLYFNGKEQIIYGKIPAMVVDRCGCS
Assay: cell-based or functional assay
propertyName: IC50, luciferase bioassay, 0.5 nM GDF8

Returns the measured IC50, luciferase bioassay, 0.5 nM GDF8 for the input binder. Input: 21-E5 (antibody, V domains shown) VH: QVQLVESGPGLVKPSETLSLTCTVYGGSISSGNYYWGWIRQPPGKGLEWIGTIYYSGSAYYNPSLKSRVTMSVDTSKNQFSLKLSSVTAADTAVYYCVRDYYDSSGHYYNWFDPWGQGTTVTVSS VL: AIQMTQSPSSLSASVGDRVTITCRASQDIRHDLGWYQQKPGKAPKRLIYAASSLQSGVPSRFSGSGSGTEFTLTISSLQPEDFATYYCLQHNTYPWTFGQGTKVEIKR
2.34 nM
